system.name: Adrenergic α2* Non-Selective
method.notes: Radioligand binding 203900 Adrenergic α2 Non-Selective
settings: rat
readout.type: Ki

Quick note, Ki for "c1ccc2c(c1)N=C(N1CCNCC1)c1ccccc1S2" landed at 1290 nM

* * *

system.name: Adrenergic α1* Non-Selective
method.notes: Radioligand binding 203500 Adrenergic α1 Non-Selective
settings: rat
readout.type: IC50 (µM)
Number only, in µM; omit the unit.

Quick note, IC50 for "c1ccc2c(c1)N=C(N1CCNCC1)c1ccccc1S2" landed at 0.0693

* * *

system.name: UniProtKB P14842
readout.type: pKi
Lab note — pKi values are minus log10 of concentrations in M.

Quick note, pKi for Cl.Cl.c1ccc2c(c1)N=C(N1CCNCC1)c1ccccc1S2 [dihydrochloride salt] landed at 7.57

Value source: patent US20100093700A1
